# Test Method Notes: Inhibition of Cryptococcus neoformans beta-carbonic anhydrase incubated for 15 mins prior to testing by stopped-flow CO2 hydration assay
pKi: −log10 of the molar value.
Classify as follows. Reported pKi greater than or equal to 8: TRUE. Reported pKi below: FALSE.

NS(=O)(=O)c1ccc(CC/N=C/c2c[nH]c3ccc(Br)cc23)cc1 ... TRUE
N#Cc1ccc(/C=N/CCc2ccc(S(N)(=O)=O)cc2)cc1 ... FALSE
NS(=O)(=O)c1ccc(/N=C/c2ccccc2)c(F)c1 ... TRUE
COc1cc([N+](=O)[O-])ccc1/C=N/CCc1ccc(S(N)(=O)=O)cc1 ... FALSE
NS(=O)(=O)c1ccc(CC/N=C/c2c(F)c(F)cc(F)c2F)cc1 ... TRUE
